tested on: 855422-203-R-J1-PDC complex spheroid growth; assay: Anticancer human tumor 855422-203-R-J1-PDC patient-derived bladder carcinoma cell line growth inhibition [AhR]; conditions: second compound 10 µM; first compound 3 µM; active means viability on the fitted dose curve at most 10% of control; inactive means the rest;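 further: spheroids exposed to agents for seven days before readout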
Write down the outcome that applies. Available outcomes: active, inactive

Input: What outcome does the record of this test show for CCN(c1cc(-c2ccc(CN3CCOCC3)cc2)cc(C(=O)NCc2c(C)cc(C)[nH]c2=O)c1C)C1CCOCC1 + Cc1ccccc1N=Nc1ccc(NC(=O)c2ccnn2C)c(C)c1 ?
Output: inactive

Input: What outcome does the record of this test show for CCN(c1cc(-c2ccc(CN3CCOCC3)cc2)cc(C(=O)NCc2c(C)cc(C)[nH]c2=O)c1C)C1CCOCC1 + Cc1cncc(-c2nc(NCCc3c[nH]c4ccccc34)c3ncn(C(C)C)c3n2)c1 ?
Output: active

Input: What outcome does the record of this test show for O=C(C=Cn1cnc(-c2cc(C(F)(F)F)cc(C(F)(F)F)c2)n1)NNc1cnccn1 + Cc1cncc(-c2nc(NCCc3c[nH]c4ccccc34)c3ncn(C(C)C)c3n2)c1 ?
Output: active
